target: Tumor necrosis factor receptor superfamily member 10B (Homo sapiens) (UniProt O14763); assay: caspase-8 TRAIL sensitization, hit retest, confirmation, cell-based, NB7+caspase-8, with/without TRAIL, luminescence panel (AID 651596); conditions: NB7 neuroblastoma + caspase-8, TRAIL sensitization, luminescence viability, with TRAIL, mean of runs, at 10 µM, stronger effect = higher value
Sequence (O14763 whole entry, looked up): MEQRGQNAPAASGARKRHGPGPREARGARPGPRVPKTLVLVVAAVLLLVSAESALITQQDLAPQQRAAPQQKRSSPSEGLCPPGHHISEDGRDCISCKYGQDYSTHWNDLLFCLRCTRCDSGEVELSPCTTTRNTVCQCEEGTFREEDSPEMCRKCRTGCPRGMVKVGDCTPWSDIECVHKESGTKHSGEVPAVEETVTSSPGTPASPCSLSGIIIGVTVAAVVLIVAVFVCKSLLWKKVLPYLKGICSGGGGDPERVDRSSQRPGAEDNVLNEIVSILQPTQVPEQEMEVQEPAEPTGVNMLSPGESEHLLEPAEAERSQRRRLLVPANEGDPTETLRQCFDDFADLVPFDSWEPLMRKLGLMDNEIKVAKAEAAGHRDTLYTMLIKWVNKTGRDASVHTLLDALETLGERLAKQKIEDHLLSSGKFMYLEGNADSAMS
Hi there, I'd appreciate the recorded activity for every entry that follows.
Give just the number in %; leave the unit off.

Which activity is listed for CCCCCCCCCCCCCCCC(O)C[N+](C)(C)CCO (centres undefined) ?
95.8

Which activity is listed for COc1cccc(N2CCN(c3ncnc4c3cnn4-c3ccc(C)cc3C)CC2)c1 ?
97.8

Which activity is listed for CCOC(=O)c1c(C)nc2c3ccccc3ccn12 ?
51.9

Which activity is listed for N#Cc1nc(Nc2cccc(Cl)c2)c2ncn(C3CCCC3)c2n1 ?
76.7

Which activity is listed for C=CCNc1ncnc2c1ncn2C1OC(CO)C(O)C1O (centres undefined) ?
46.8

Which activity is listed for O=C(Nc1nc(=O)c2ccccc2s1)c1ccc(Cl)cc1 ?
66.1

Which activity is listed for C#CCN(C[C@@H]1[C@@H](OC(=O)NCc2ccccc2F)[C@@H](OC(=O)NCc2ccccc2F)Cn2c(=O)ccc(=O)n21)S(=O)(=O)c1ccc(C)cc1 ?
95

Which activity is listed for CCOC(=O)c1ccc(NC(=O)c2nc[nH]c2C(=O)NCCNC(=O)c2[nH]cnc2C(=O)Nc2ccc(C(=O)OCC)cc2)cc1 ?
99.4

Which activity is listed for O=C(Nc1ccc2c(c1)nc1n2CCSC1)c1ccco1 ?
77.4

Which activity is listed for COc1ccc(CSc2nc3ccccc3[nH]2)cc1 ?
70.8

Which activity is listed for O=C(CCl)N(O)c1ccc(C=Cc2ccccc2)cc1 ?
40

Which activity is listed for O=[N+]([O-])c1c(Nc2ccccc2O)cc(Cl)c2nonc12 ?
63.9

Which activity is listed for O=C(CSc1ccccn1)Nc1nonc1[N+](=O)[O-] ?
30.1

Which activity is listed for OCC1OC(n2cnc3c(SCc4ccccc4)ncnc32)C(O)C1O (centres undefined) ?
59.9

Which activity is listed for N/C(=N\OC(=O)COc1ccc(Br)cc1Cl)c1ccccn1 ?
38.2

Which activity is listed for O=C1CCCCC1Sc1nnc(-c2ccc3c(c2)OCO3)o1 (centres undefined) ?
48.4

Which activity is listed for COc1cccc(C=NNc2nnc(NN=Cc3cccc(OC)c3OC)c3ccccc23)c1OC ?
83.2

Which activity is listed for O=c1oc2c(O)cccc2cc1-c1nc2ccccc2[nH]1 ?
72

Which activity is listed for CC(C)C[C@H](NC(=O)c1nc[nH]c1C(=O)N[C@@H](CCCCNC(=O)OC(C)(C)C)C(=O)OC(C)(C)C)C(=O)OC(C)(C)C ?
84.7

Which activity is listed for Cc1ccc(OCCSCc2nnc(NC(=O)Nc3cccc(Cl)c3)s2)cc1 ?
36.6

Which activity is listed for CCOc1ccc(CN(C)C(=O)[C@H](Cc2ccccc2)NC(=O)OCc2ccccc2)cc1OC ?
-12.3

Which activity is listed for Cc1cccc(-n2ncc3c(NC4CCCCC4)ncnc32)c1 ?
66.7

Which activity is listed for COc1ccccc1NC(=O)Nc1ccc2c(c1)nc(C)n2C ?
77

Which activity is listed for COn1c(SCc2ccc(C)cc2C)nc2ccccc2c1=O ?
69.7

Which activity is listed for Cc1nc2cc(NC(=O)Nc3ccccc3Cl)ccc2n1C ?
78.5

Which activity is listed for Brc1ccc(-c2nnc3sc(CN4CCC5(CC4)OCCO5)cn23)cc1 ?
68.3

Which activity is listed for Cc1cc(Br)c(OCc2ccc(C(=O)N/N=C/c3ccc[nH]3)cc2)c(Br)c1 ?
72.8

Which activity is listed for COc1ccc(/C=N/Nc2nncc3ccccc23)cc1 ?
97.3

Which activity is listed for N/C(=N\OC(=O)c1cccc(Br)c1)c1ccc(Br)cc1 ?
78.1

Which activity is listed for Cc1ccc(/C=N/Nc2ccc3ccccc3n2)o1 ?
55.2

Which activity is listed for COc1cccc2sc(N(CCCN(C)C)C(=O)c3ccc(S(=O)(=O)N4CCc5ccccc5C4)cc3)nc12 ?
56.8

Which activity is listed for C[C@@H](CO)NC(=O)c1ccc2c3n(nc2c1)-c1ccccc1CO3 ?
91.5

Which activity is listed for C#CCSc1nnc(-c2sc(-c3ccccc3)nc2C)n1C ?
84.7

Which activity is listed for NC(Cc1ccccc1)c1csc(NC(=O)Nc2ccccc2Oc2ccccc2)n1 (centres undefined) ?
61.5

Which activity is listed for NC(=S)NN=C1c2cc(OCCN3CCOCC3)ccc2-c2ccc(OCCN3CCOCC3)cc21 ?
99

Which activity is listed for CC(=O)Nc1ccc(NC(=O)CSc2nnc(NC(=O)c3ccccc3F)s2)cc1 ?
69.5

Which activity is listed for O=c1[nH]c(=S)[nH]c2c1C(c1ccc(Cl)c(Cl)c1)OC(CCc1ccccc1)C2 (centres undefined) ?
57.9

Which activity is listed for COc1ccccc1N(C(=O)CCl)c1cn(C(C)=O)c2ccccc12 ?
99.5

Which activity is listed for O=C(NN=Cc1ccc2c(c1)CCN2)c1cccs1 ?
47.9

Which activity is listed for CCOc1ccccc1NC(=O)c1nc(S(=O)(=O)Cc2cccc(C)c2)ncc1Cl ?
84.6

Which activity is listed for COc1ccccc1C/C(N)=N/OC(=O)c1cccc([N+](=O)[O-])c1 ?
89.8

Which activity is listed for NC(=O)c1ccccc1N/C=C/C(=O)c1ccc(F)cc1 ?
78.8

Which activity is listed for COc1ccc2nc(-c3ccc(F)cc3)sc2c1 ?
68.2

Which activity is listed for Nc1ccc(-c2ncc(-c3ccccc3)o2)cc1 ?
28.2

Data credit: PubChem BioAssay
